Reported MFI at 0.6 nM mAb values for a set of binders
# target_or_test_system: T1, Cyno CD33 full length, expressed on HEK293F cells (cynomolgus monkey)
# T1 construct: HEK293F cells transduced with lentivirus containing full length cyno CD33 (Genbank XP_005590138.1); also called cyCD33
# assay_text: flow cytometry, HEK293F cells expressing cyno CD33
Respond with the bare value in MFI.

binder	measured_parameter	recorded_measurement
C33B122 (antibody, IgG1, V domains shown, huIgG1 F405L; also called C33F127; C33H92/C33L30) VH: QLQLQESGPGLVKPSETLSLTCTVSGGSIRSSSYYWGWIRQPPGKGPEWIGSIYSSGNTYYNPSLKSRVTISVDTSKNQFSLKLISMTAADTAVFYCARLAATIVVPAARYFDCWGQGTLVTVSS VL: SYELTQPPSVSVSPGQTVSISCSGDRLGDKYACWYQQKPGQSPVLVIYQDSKRPSGIPERFSGSNSGNTATLTISGTQAMDEADYYCQAWDSSSYVFGTGTKVTVL	MFI at 0.6 nM mAb	5840

Now for the binder whose MFI at 0.6 nM mAb we want.
Task item: Which MFI at 0.6 nM mAb reading was recorded for the binder C33B88 (antibody, IgG1, V domains shown, huIgG1 F405L; also called C33F93; C33H88/C33L61) VH: QVQLVQSGSELKKPGASVKVSCKASGYTLTRSAMNWVRQAPGQGLEWMGWINTNTGNPTYAQGFTGRFVFSLDTSVNTAYLLISSLKTEDTAVYYCASDILPGYHEDYWGQGTLVTVSS VL: QSALTQPASVSGSPGQSITISCTGINSDVGSYDLVSWYQQHPGKAPKLLIYDGSERPSGVFGRFSGSKSDNTTSLTISGLQAEDEAAYYCCSYEVTTTYVVFGGGTKLTVL ?
Reply: 43900
